test system: SW-620 colon; test: NCI tumour cell line growth inhibition, 48 h
value_type: TGI

C=CC(=O)N1C/C(=C\c2ccc([N+](=O)[O-])cc2)C(=O)/C(=C/c2ccc([N+](=O)[O-])cc2)C1 | 1.96 µM
CC(=O)NC(CSC1=C2NC(=O)\C=C/C=C/C=C\C(C)C(O)CC(=O)/C(C)=C\CC(O)/C=C/C(C)C(O)C(C)C=C(C)C(=O)c3c(O)c(C)cc(c3C1=O)C2=O)C(=O)O (stereo not drawn) | > 100 µM
Cc1nc2ccccn2c1NC(=O)NNC(=S)Nc1ccc(F)cc1 | > 100 µM
Cc1ccc2nc3cc(C)c(=O)cc-3sc2c1 | > 100 µM

In: # return TGI of O=C(/C=C1\C(=O)N(Cc2ccccc2)c2ccccc21)c1ccc(OCCN2CCCCC2)cc1 (system: SW-620 colon)
Out: 3.3 µM

In: Give TGI for this entry on SW-620 colon: COC(=O)C1CC(OC(C)=O)C=C2C(=O)CCC21 (stereo not drawn)
Out: 39.4 µM

In: Give TGI only, for O=C(CN1CCCCC1)Nc1ccc2c(c1)C1Oc3ccccc3CC1CO2 (stereo not drawn) , using SW-620 colon data.
Out: 39.7 µM

---

Consider the following compounds and their measured TGI readings.
tested on: SNB-78 CNS; assay: NCI tumour cell line growth inhibition, 48 h

O=C1CNC(=O)c2[nH]cnc2N1 | > 100 µM
COC1CCC(OC)C(C2(C3CC(OC)CCC3OC)OC(=O)c3ccccc32)C1 (stereo not given) | > 100 µM
C=CCN1/C(=C2\SC(=S)N(c3ccc(C)cc3)C2=O)Sc2c1ncn(C)c2=O | > 100 µM
COC(=O)[C@]1(c2ccc(N(C)C)cc2OC)C[C@@H]2CCCN(CCc3c1[nH]c1ccccc31)C2 | > 91.1 µM
COC(=O)C1CC(OC(C)=O)C=C2C(=O)CCC21 (stereo not given) | 72.8 µM
CCOc1ccc(C(C)c2cc3c(cc2OC)OCO3)cc1 (stereo not given) | > 100 µM
N/N=C(\c1nc2ccc(Cl)cc2[nH]c1=O)C(O)c1ccc(Cl)c(Cl)c1 (stereo not given) | > 100 µM
c1ccc(SC23C4C5C6C4C2C6C53)nc1 (stereo not given) | > 100 µM

In: Fill in TGI for record COC(=O)C(CC(=O)Nc1ccc(Cl)c(Cl)c1)C(=O)C(=O)Nc1ccc(Cl)c(Cl)c1 (stereo not given)
Out: > 100 µM

In: Answer with the recorded TGI for the compound listed here: N#CC(C#N)=Cc1ccc(CP(=O)(O)O)cc1
Out: > 100 µM

In: Return reported TGI. Input compound: CCCCc1c2cnccc2c(CCCC)c2c1[nH]c1ccccc12
Out: 77.8 µM

In: # return recorded TGI for input CCOC(=O)C12C(C(=O)OC)=C(C)N(NC(=O)Nc3ccccc3)C1(N)N(NC(=O)Nc1ccccc1)C(C)=C2C(=O)OC (stereo not given)
Out: > 100 µM

---

tested on: UACC-257 melanoma; assay: NCI tumour cell line growth inhibition, 48 h
value_type: TGI

Below: 5 compounds and their reported TGI.
Cc1cc(C)c(C(=O)O)c(SSc2cc(C)cc(C)c2C(=O)O)c1 | > 100 µM
Cc1cccc(C)c1N1C(=O)C(=O)C(c2nc3ccccc3s2)/C(=N/NC(=O)c2ccccc2O)C1=O (configuration not stated) | 68.2 µM
COC(=O)C(=O)C(C(=O)C(=O)Nc1ccccc1OC)c1nc2ccc([N+](=O)[O-])cc2[nH]c1=O (configuration not stated) | > 100 µM
CCn1c2c(c3ccccc31)[C@@H](c1ccc(Cl)cc1)CC1C(=O)N(c3ccccc3)C(=O)C21 (some centres not stated) | > 100 µM
CN(O)C(=O)CCCC(=O)NCC(C)(C)CNC(=O)CCCC(=O)N(C)O | > 100 µM

In: Quick one: give measured TGI for CC1(C)C2CCC1C(=O)[C@@]1(C=CC(=O)CC1)C2 (some centres not stated)
Out: > 100 µM

In: Please list TGI recorded for the compound O=[N+]([O-])c1cc2ccc(N(CCO)CCO)nc2nc1N(CCO)CCO
Out: > 100 µM
